Measured values drawn from the supplement of paper PMC6757056 for this set.

I'd appreciate it if you could supply normalized RNA/DNA level with ligand (log10) values for the items below.
B1: library; a variant is named by its letters at N, in order (parent)
chain: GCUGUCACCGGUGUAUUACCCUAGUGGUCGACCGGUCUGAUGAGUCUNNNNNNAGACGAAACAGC

variants of: B1; test: normalized RNA/DNA level with ligand (relative to sTRSVctl = 100) (log10 (% of sTRSVctl)); ligand: hypoxanthine (xanthine aptamer); higher = less ribozyme self-cleavage, higher mRNA level; conditions: ligand concentration (+) RNA-Seq: 5 mM, HEK293T, reporter: mCherry (pCS4076), ligand present: yes
Answers are plain numbers.

Guide cases for normalized RNA/DNA level with ligand (log10), answers given:
Mutation Spec | Measurement
UAGUAC | 1.94
CAGCCC | 2.03
GGCCCG | 1.97
AACCGC | 1.92
GUCCCA | 1.94

Please go through the list and note normalized RNA/DNA level with ligand (log10) for each variant.
1. UCAAAC
2. ACACGU
3. GGUCAU
4. GCGCGG
5. UAGGCC
6. CUUUCU
7. CCCUAA

Out:
1. 1.92
2. 1.95
3. 1.94
4. 1.81
5. 2
6. 1.93
7. 1.94

Can you give me normalized RNA/DNA level with ligand (log10) for all of these, one by one?
1. AUCCUC
2. GGGAAG
3. AAAGGA
4. GGGCGA

Out:
2.02
1.64
1.9
1.99

Please give normalized RNA/DNA level with ligand (log10), item by item, for the list that follows.
1. UCGGUG
2. UUACAA
3. GUUAUU
4. GGGUUU
5. GAUACU

Out:
1.98
1.96
1.97
1.95
1.94

// batch mode: one normalized RNA/DNA level with ligand (log10) value per listed entry
1. UAUAAA
2. AGACUC
3. CUCUAA

Out:
1. 1.89
2. 1.94
3. 1.93

Provide reported normalized RNA/DNA level with ligand (log10) for each item, in the same order as listed.
1. UAGAAC
2. CAACAA
3. GGGAAC
4. ACCAAG
5. GUACCC
6. CGGCAC
7. GCGCCG

Out:
1. 1.93
2. 1.88
3. 1.96
4. 1.89
5. 1.9
6. 1.92
7. 1.91

List reported normalized RNA/DNA level with ligand (log10) for each of these variants:
1. ACGUCG
2. GGUGUC
3. AUCAUG

Out:
[1.88, 1.92, 1.89]

Please give normalized RNA/DNA level with ligand (log10), item by item, for the list that follows.
1. CGACAC
2. CACGUC
3. GCCUCU
4. UCAAUA
5. GAACCU

Out:
1: 1.94; 2: 1.98; 3: 2.01; 4: 1.91; 5: 1.95

Batch request: normalized RNA/DNA level with ligand (log10) for each of the following variants.
1. GGAAUA
2. CAAUUG
3. GGUGAG
4. UCUACA
5. AGAACC
6. UCCCGG

Out:
1.95
1.96
1.77
1.94
1.94
1.95
